test.description: NCI Yeast Anticancer Drug Screen. Data for the rad50 strain (AID 155);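 also: 0% = growth of vehicle-only cultures of the same strain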
experimental.context: S. cerevisiae rad50 strain growth inhibition; at 50.0 µM; stronger effect = higher value
This is part of a sample that, as a whole, favours compounds with a hit. Of some 79,000 tested, about 15% had one in any assay.
experimental.endpoint: growth inhibition (%)
Only the number, expressed in %, is required.

# count of solved cases: 5
Inquiry: Specify reported growth inhibition for the compound shown: O=C1c2[nH]c3ccccc3c2CN1CCc1ccccc1
Reply text: -2.4

Inquiry: Specify reported growth inhibition for the compound shown: COC1/C=C\OC2(C)Oc3c(C)c(O)c4c(O)c(c5c(c4c3C2=O)NC2(CCN(C)CC2)N=5)=NC(=O)/C(C)=C\C=C\C(C)C(O)C(C)C(O)C(C)C(OC(C)=O)C1C (configuration not stated)
Reply text: 2.85

Inquiry: Specify reported growth inhibition for the compound shown: C=CCc1ccc(O)c(OC)c1
Reply text: 36

Inquiry: Specify reported growth inhibition for the compound shown: c1ccc(COc2ccc(OCc3ccccc3)cc2)cc1
Reply text: -1.5

Inquiry: Specify reported growth inhibition for the compound shown: O=c1[nH]cnc2c1CN(c1ccc(Cl)cc1)C2
Reply text: -14.5

Continuing:
Inquiry: Specify reported growth inhibition for the compound shown: CCN(CC)c1ccc(N=C2C=C(C(=O)Nc3ccccc3OC)C(=O)c3ccccc32)c(C)c1
Reply text: -24.6

Inquiry: Specify reported growth inhibition for the compound shown: Nc1cc([N+](=O)[O-])cc(S(=O)(=O)O)c1O
Reply text: -5.15

----------
test.description: NCI Yeast Anticancer Drug Screen. Data for the sgs1 mgt1 strain (AID 161);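 also: 0% = growth of cultures given vehicle only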
experimental.context: S. cerevisiae sgs1 mgt1 strain, at 50.0 µM, stronger effect = higher value
Description: Growth inhibition of yeast strains with defined genetic alterations is measured as a screen for potential anti-cancer activity. Selected strains with alterations in DNA damage repair or cell cycle control were exposed to compounds and growth inhibition was measured relative to vehicle treated controls. The strain used in this assay is sgs1 mgt1
About 79,000 compounds went through this panel and 15% of them were active in at least one assay; those are over-represented in the sample as a whole.
Answer not fulfilled if growth inhibition is under 10%, and fulfilled if it is 10% or more.

Inquiry: Check the entry Cn1c(=O)c2conc2n(-c2ccc(Cl)cc2)c1=O : does growth inhibition equal or exceed 10%?
Reply text: not fulfilled

Inquiry: Check the entry Cc1ccccc1N(C(=O)C(=O)O)c1ccccc1C : does growth inhibition equal or exceed 10%?
Reply text: not fulfilled

Inquiry: Check the entry CC1=C(C(c2ccccc2)c2ccccc2)C(=O)c2ccccc2C1=O : does growth inhibition equal or exceed 10%?
Reply text: not fulfilled

Inquiry: Check the entry Cn1nc2c(c1-c1ccncc1)CCc1ccccc1-2 : does growth inhibition equal or exceed 10%?
Reply text: fulfilled

Inquiry: Check the entry O=c1[nH]c(=O)n(COCCO)cc1-c1ccccc1 : does growth inhibition equal or exceed 10%?
Reply text: not fulfilled

Continuing:
Inquiry: Check the entry O=C[c-]1[c-][c-][c-][c-]1.[Fe+2].[c-]1[c-][c-][cH-][c-]1 : does growth inhibition equal or exceed 10%?
Reply text: fulfilled

Inquiry: Check the entry CCOc1ccc(/C=C2N=C(/C=C/c3ccccc3)OC\2=O)cc1 : does growth inhibition equal or exceed 10%?
Reply text: fulfilled

Inquiry: Check the entry O=C(O)c1ccc2c(c1)S(=O)(=O)NC2=O : does growth inhibition equal or exceed 10%?
Reply text: fulfilled

Inquiry: Check the entry CC(CO)(CO)Nc1ncnc2ccccc12 : does growth inhibition equal or exceed 10%?
Reply text: not fulfilled

Inquiry: Check the entry O=C1/C(=C/C=C/c2ccccc2)CCC1CNc1ccc(Br)cc1 (stereo not given) : does growth inhibition equal or exceed 10%?
Reply text: not fulfilled

Provenance of the data: PubChem BioAssay (NCI)
